# assay_name: Human HepG2 cell viability assay in 384 well format
# Type: toxicity, cell-based
# Parameters: dose 125 nL, time 70.5 hour; concentration not given beside the values
# condition_context: HepG2 cells, read-out: Inhibition
test_readout: cytotoxicity at 70.5 h (%)

1. Cc1nc(-c2ccc(Cl)s2)sc1C(=O)NCCS(N)(=O)=O ... -13.2
2. COc1cccc(C(=O)Nc2n[nH]c(C3CCCO3)n2)c1 (centres undefined) ... 22.1
3. CC(C)c1nnc2n1CCN(CCCS(=O)(=O)c1ccccc1)C2 ... -13.8
4. Cc1ccccc1CN1CCNC(=O)C1CC(=O)NCC1CCCCC1 (centres undefined) ... -7.5
5. Cc1cc(C)n(CC2CN(Cc3nnc(C)o3)CCO2)n1 (centres undefined) ... -3.59
6. NC(=O)NCC1CCCCN1C(=O)c1ccc(Cl)s1 (centres undefined) ... -8.02
7. Cc1cccc(N2CCN(C(=O)Nc3cnn(CC(N)=O)c3)CC2)c1 ... -18.1
8. CCn1cc(NC(=O)NCC(c2ccc(OC)cc2)N(C)C)cn1 (centres undefined) ... -5.2
9. Cc1cc2c(C)cc(O)cc2c(=O)o1 ... -14.8
10. COC(=O)c1ccc(N2CCC(C(O)c3ccccc3)CC2)nn1 (centres undefined) ... -4.29
11. c1cnc(NCc2cncc3c2CCN(Cc2cccs2)C3)nc1 ... -10.8
12. O=C(NCc1ccco1)[C@@]12CCO[C@@H]1CCN(C1CCC1)C2 ... 2.1
13. CC(NCc1ccncc1)c1ccc(N2CCN(C)CC2)c(F)c1 (centres undefined) ... 4.11
14. CC/C=C(/C)C(=O)N1CSCC1C(=O)NC1=NCCS1 (centres undefined) ... -7.18
15. CCC(=O)Nc1cccc(OCC(=O)N(C)Cc2nc(C)c[nH]2)c1 ... -4.8
16. N#Cc1ccc(OC2CCN(C(=O)c3cncc(Br)c3)CC2)nc1 ... -9.99
17. CCN(CC)CC(=O)N1CCN(CCCc2ccncc2)CC1 ... -0.476
18. CCN(CC)S(=O)(=O)N1CCCC1CC(=O)c1cccs1 (centres undefined) ... -4.6
19. COc1cc(CNC(=O)c2c(C)noc2C)ccn1 ... -4.45
20. COCc1cc(NCc2ccccc2-n2cncn2)ncn1 ... -10.8
21. O=C(NCC1=CCCCC1)C(c1cccnc1)N1CCOCC1 (centres undefined) ... -1.14
22. COc1ccc(C)cc1CN1CCC(c2cc3ncccc3cn2)CC1.Cl ... 105
23. Cc1ccc(C(=O)N2CCN(c3ncnc4nc(N)ccc34)CC2)cc1 ... 20.2
24. CSCCC(=O)N1CCCN(Cc2cnn(C(C)C)c2)CC1 ... 34.5
25. Cc1noc2nc(C3CCN(CC4=CCCOC4)CC3)cc(C(F)F)c12 ... -7.18
26. COc1cc(F)ccc1N(C)Cc1ccncc1 ... -1.33
27. COc1cc2c(cc1C(=O)N1CC(c3ccncc3)C1)CCC2 ... -5.23
28. c1cnc(N2CC[C@@H](OCC3CC3)[C@@H]2Cc2cccnc2)nc1 ... -4.73
29. CC(C)N1CCC(N2CCOC3(CCCC3)C2)C1=O (centres undefined) ... -6.53
30. Cc1cnc(NC(=O)c2ccc(-n3ncc(C#N)c3N)cc2)s1 ... 8.89
31. COCc1cc(O)nc(C2CCCN(Cc3cccc(OC)c3)C2)n1 (centres undefined) ... -1.68
32. COc1ccc(C2(C(=O)NC3CCc4nccn4C3)CCCC2)cc1 (centres undefined) ... -3
33. COc1ccc(CC(C)Nc2cccc(SC)c2)cc1 (centres undefined) ... -5.87
34. CCNC(=O)O[C@H]1COCCN(c2nc3ccccc3s2)C1 ... -2.95
35. COCC(=O)NCc1cc2n(n1)CCCN(Cc1ccccc1SC)C2 ... -6.55
36. c1ccc(-c2nc(CN3CCn4c(nnc4C4CC4)C3)co2)cc1 ... -9.3
37. CCc1nccn1C1CCCN(C(=O)c2cn3c(C)cccc3n2)C1 (centres undefined) ... -3.89
38. Cc1ccc(OCC(=O)NC2CC2)nc1 ... -2.52
39. Cc1ncsc1C(=O)NCCc1cccs1 ... 2.38
40. N#Cc1cc(F)c(NCCCOCC2CCOC2)c(F)c1 (centres undefined) ... 7.98
41. Cc1cccc(CN2CCOC3(COCCN(CCN(C)C)C3)C2)n1 (centres undefined) ... -3.04
42. O=C1N(Cc2ccccn2)C[C@H]2CN(C3CCC3)CCN12 ... 2.38
43. COC(=O)CC1CCCCN1CC(=O)NCCc1ccc(F)cc1 (centres undefined) ... 1.06
44. O=C1CC2(CCCCN2C(=O)c2cccs2)CN1CC1CC1 (centres undefined) ... 3.54
45. Cc1ccc(CN2CCCn3nnc(COCC4CC4)c3C2)s1 ... -1.67
46. CN(C)S(=O)(=O)N1C[C@@H](OCc2cccnc2)[C@H]2OCCC[C@H]21 ... 12.6
47. CC(C)n1c2ccccc2c2c1cc(C(=O)N(C)C)n2C ... 16.4
48. O=C(c1cc(Br)ccc1Cl)N1CCN(Cc2ccco2)CC1 ... -4.63
49. CCOC(=O)NC(CNC(=O)c1ccccn1)CC(C)C (centres undefined) ... -4.75

* * *

Each entry below lists one item and its recorded cytotoxicity at 70.5 h value.
# assay_name: Human HepG2 cell viability assay in 384 well format
# Format: toxicity, cell-based
# Parameters: dose 125 nL, time 70.5 hour; concentration not given beside the values
# condition_context: HepG2 cells, read-out: Inhibition
test_readout: cytotoxicity at 70.5 h

1) Cc1cc(N(C)C)nc(N2CCN(Cc3nccn3C)CC2)n1 ... -5.76%
2) Cc1ccc2c(n1)N(CC1CC1)CCN(S(=O)(=O)C1CC1)C2 ... -5.85%
3) CC(C)CCN1C[C@H]2CCN(C(=O)NC3CCCC3)CC[C@H]2S1(=O)=O ... -23.9%
4) CN1C[C@H]2CNC[C@@]2(C(=O)N2CCN(c3ncccc3C#N)CC2)C1 ... -6.13%
5) CN(Cc1ccccc1)CC(C)(C)NC(=O)c1cnccn1 ... -0.0333%

* * *

Each entry below lists one item and its recorded cytotoxicity at 70.5 h value.
# assay_name: Human HepG2 cell viability assay in 384 well format
# Assay type: toxicity, cell-based
# Design: dose 125 nL, time 70.5 hour; concentration not given beside the values
# condition_context: HepG2 cells, read-out: Inhibition
test_readout: cytotoxicity at 70.5 h (%)

1) Fc1cnc(N2CCOC3(CCN(Cc4cccs4)CC3)C2)nc1 ... -6.76
2) O=C(NCC1CC1)[C@H]1CC[C@@H]2[C@@H](CCN2Cc2nccs2)O1 ... 1.44
3) Cc1nn(C)cc1S(=O)(=O)NCC(c1ccccc1)N1CCCCCC1 (centres undefined) ... 17.9
4) N#Cc1c(F)cccc1N1CCN(C(=O)Nc2nncs2)CC1 ... 11.5
5) CCOCCN1CCN(Cc2csc(-c3cnn(C)c3)n2)CC1 ... -13.2
6) CS(=O)(=O)CCN(CCc1cccc(F)c1)C1CC1 ... -0.807
7) COCC(=O)NC[C@]12COC[C@H]1CN(c1ncc(F)cn1)C2 ... -7.55
8) COCc1cn(CC2CCN(Cc3cc(C)[nH]n3)CC2)nn1 ... 20
9) Cc1cc(C(=O)N(C)Cc2ccccc2OCC(C)C)cc(=O)[nH]1 ... 15.6
10) Cc1nn(C)c2nc(N3CCC(C(O)c4ccccn4)CC3)sc12 (centres undefined) ... -0.933
11) Cc1cc(C)n(-c2ccc(C(=O)NCC(c3cccs3)N(C)C)cc2)n1 (centres undefined) ... -4.5
12) Cc1[nH]ncc1CCCNC(=O)Nc1ccc(C#N)cc1 ... -4.85
13) CCC(CC)NCC(C)Oc1cccnc1 (centres undefined) ... -2.86
14) CCN1C[C@H]2CCN(C(=O)C3CCCO3)CC[C@H]2S1(=O)=O (some centres undefined) ... -7.09
15) CN(C)CCOCC1CN(C(=O)c2ccccn2)Cc2ccnn2C1 (centres undefined) ... 6.38
16) Cc1cc(C(=O)Nc2ccnc(OC3CCOC3)c2)c(C)o1 (centres undefined) ... -1.8
17) CCn1ccnc1CN1CCCC(CO)(CCCc2ccccc2)C1 (centres undefined) ... -0.875
18) CCC(C(=O)NCc1ccncc1)N(c1ccccc1)S(C)(=O)=O (centres undefined) ... -3.1
19) CCc1ncnc2c1CCN(C(=O)c1cccn1C)CC2 ... 20.2
20) O=C(Cc1ccc2c(c1)OCCO2)N1CCN(c2cnccn2)CC1 ... -1.49
21) CCC[C@H]1CN(Cc2cncn2C)C[C@@H]1NC(=O)C1(COC)CCC1 ... -9.83
22) COc1ccc(-c2csc3c2c(N)nc(=O)n3CCCN(C)C)cc1 ... -8.54
23) COC(=O)c1ccc(S(=O)(=O)NC2CNC(=O)C2)cc1 (centres undefined) ... 0.76
24) Cc1cnn(CC2CN(Cc3nc4ccccc4nc3C)CCO2)c1 (centres undefined) ... -0.573

Source: ChEMBL document CHEMBL3507680
